Tested target: AGO2 WT (phosphosite mutant background) (Homo sapiens, UniProt Q9UKV8 1-859, S387D;S824A;S828D;S831D;S834A)
Sequence (Q9UKV8 whole entry S387D/S824A/S828D/S831D/S834A): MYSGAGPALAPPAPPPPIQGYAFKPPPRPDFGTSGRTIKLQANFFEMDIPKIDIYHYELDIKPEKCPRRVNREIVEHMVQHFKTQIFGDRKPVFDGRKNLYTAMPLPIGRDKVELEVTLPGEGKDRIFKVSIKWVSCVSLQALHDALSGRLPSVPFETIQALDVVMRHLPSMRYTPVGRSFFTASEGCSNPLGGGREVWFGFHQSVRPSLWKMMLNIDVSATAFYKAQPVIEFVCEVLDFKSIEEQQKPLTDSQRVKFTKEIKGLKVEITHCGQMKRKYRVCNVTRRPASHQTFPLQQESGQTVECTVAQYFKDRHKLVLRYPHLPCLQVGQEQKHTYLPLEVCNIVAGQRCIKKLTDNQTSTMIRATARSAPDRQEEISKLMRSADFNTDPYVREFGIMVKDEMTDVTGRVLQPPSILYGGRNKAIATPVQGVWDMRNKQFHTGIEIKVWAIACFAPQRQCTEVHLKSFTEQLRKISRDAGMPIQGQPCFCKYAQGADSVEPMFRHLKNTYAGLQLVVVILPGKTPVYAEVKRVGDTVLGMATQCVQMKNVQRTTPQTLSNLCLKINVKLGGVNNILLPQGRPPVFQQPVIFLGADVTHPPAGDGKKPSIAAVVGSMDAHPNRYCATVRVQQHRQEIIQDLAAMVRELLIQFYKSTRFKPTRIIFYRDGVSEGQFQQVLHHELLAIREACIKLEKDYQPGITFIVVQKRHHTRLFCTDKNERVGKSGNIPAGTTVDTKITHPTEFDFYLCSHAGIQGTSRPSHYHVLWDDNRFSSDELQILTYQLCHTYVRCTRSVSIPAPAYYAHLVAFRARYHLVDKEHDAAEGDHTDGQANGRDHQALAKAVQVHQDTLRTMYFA
Experimental details: RNA Bind-n-Seq (nitrocellulose filter binding and sequencing); miR-122 guide loaded in AGO2; 60 min incubation; 30 mM Tris pH 8.0, 100 mM potassium acetate, 2 mM magnesium acetate, 0.5 mM TCEP, 0.005% NP-40, 0.01 mg/ml yeast tRNA; 3 nM AGO2-miR-122, 100 nM RNA library; 60; high values mean tight binding
Experimental conditions: protein: recombinant; tags: His6 (N-terminal, pFastBac HTA)
Outcome measure: binding signal

Request: Query: binding signal; subject: ATACTCCA (ssRNA, constant regions annealed to DNA blockers; guide miR-122 5' phosphate) RNA 1: GAGUUCUACAGUCCGACGAUCCCAACAUACUCCACACCUGGAAUUCUCGGGUGCCAA RNA 2: UGGAGUGUGACAAUGGUGUUUG DNA 1: GATCGTCGGACTGTAGAACTC DNA 2: TTGGCACCCGAGAATTCCA
Result: 1.32 fold enrichment over input

Request: Item GCATCTCA (ssRNA, constant regions annealed to DNA blockers; guide miR-122 5' phosphate) RNA 1: GAGUUCUACAGUCCGACGAUCCCAACGCAUCUCACACCUGGAAUUCUCGGGUGCCAA RNA 2: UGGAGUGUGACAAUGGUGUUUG DNA 1: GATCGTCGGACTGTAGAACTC DNA 2: TTGGCACCCGAGAATTCCA has what recorded binding signal?
Result: 0.126 fold enrichment over input

Request: Given ACACTTCA (ssRNA, constant regions annealed to DNA blockers; guide miR-122 5' phosphate) RNA 1: GAGUUCUACAGUCCGACGAUCCCAACACACUUCACACCUGGAAUUCUCGGGUGCCAA RNA 2: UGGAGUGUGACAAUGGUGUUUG DNA 1: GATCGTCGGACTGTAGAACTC DNA 2: TTGGCACCCGAGAATTCCA , state its recorded binding signal.
Result: 0.24 fold enrichment over input

Request: Reported binding signal for GCGTCCCA (ssRNA, constant regions annealed to DNA blockers; guide miR-122 5' phosphate) RNA 1: GAGUUCUACAGUCCGACGAUCCCAACGCGUCCCACACCUGGAAUUCUCGGGUGCCAA RNA 2: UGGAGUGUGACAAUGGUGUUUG DNA 1: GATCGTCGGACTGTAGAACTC DNA 2: TTGGCACCCGAGAATTCCA : what is it?
Result: 0.126 fold enrichment over input
